molecular target: T1, human/cynomolgus monkey ROR1 protein (Acro Biosystems, Cat. No.: RO1-H522y) (human/cynomolgus monkey, UniProt Q01973 30-403); assay: SPR (Biacore), antibody captured on anti-hIgG CM5 chip, ROR1 protein as analyte, method of Example 5
T1 construct: Bought SPR analyte
T1 sequence (Q01973 30-403 limits assumed): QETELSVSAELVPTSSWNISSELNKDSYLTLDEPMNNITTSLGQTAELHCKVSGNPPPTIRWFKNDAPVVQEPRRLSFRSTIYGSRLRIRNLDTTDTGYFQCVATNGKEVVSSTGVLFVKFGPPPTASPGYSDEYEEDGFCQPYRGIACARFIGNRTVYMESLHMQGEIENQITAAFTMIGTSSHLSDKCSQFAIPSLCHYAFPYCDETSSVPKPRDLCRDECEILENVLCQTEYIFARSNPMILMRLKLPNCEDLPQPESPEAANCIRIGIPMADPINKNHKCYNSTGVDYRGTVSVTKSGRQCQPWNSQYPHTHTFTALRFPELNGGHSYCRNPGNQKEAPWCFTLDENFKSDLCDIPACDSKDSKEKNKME
REPORTED_PROPERTY: kon (M⁻¹ s⁻¹)
Express your answer in M⁻¹ s⁻¹, writing the number without its unit.

Give the measured kon for hz137G11D10-3.2 (antibody, human IgG1, kappa, V domains shown, Humanized, human IgG1/kappa) VH: QVQLQESGPGLVKPSQTLSLTCTVSGYSITSDYAWNWIRQHPGKGLEWIGYITYSASTSYNPSLKSRVTISRDTSKNQFFLKLSSVTAADTAVYYCARGAGTYYFDYWGQGTLVTVSS VL: DIQMTQSPSSLSASVGDRVTITCITSTDIDEDMNWYQQKPGKAPKLLISEDNSLRPGVPSRFSSSGYGTDFTLTISSLQPEDFATYYCLQTNNLPLTFGQGTKVEIKR
2.92e+06

Identify the reported kon for the following entry. hz137G11D10-1.2 (antibody, human IgG1, kappa, V domains shown, Humanized, human IgG1/kappa) VH: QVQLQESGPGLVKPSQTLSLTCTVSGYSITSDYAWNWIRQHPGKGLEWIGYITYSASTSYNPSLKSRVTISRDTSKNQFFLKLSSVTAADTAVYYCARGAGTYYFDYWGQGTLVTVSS VL: ETTLTQSPAFMSATPGDKVNISCITSTDIDEDMNWYQQKPGEAAKLIISEDNSLRPGIPPRFSSSGYGTDFTLTINNIESEDAAYYFCLQTNNLPLTFGQGTKVEIKR
3.94e+06
